# Target under test: recombinant human PAI-1 (Homo sapiens, UniProt P05121)
# Construct: purchased Molecular Innovations, Inc
# Sequence (P05121 24-402): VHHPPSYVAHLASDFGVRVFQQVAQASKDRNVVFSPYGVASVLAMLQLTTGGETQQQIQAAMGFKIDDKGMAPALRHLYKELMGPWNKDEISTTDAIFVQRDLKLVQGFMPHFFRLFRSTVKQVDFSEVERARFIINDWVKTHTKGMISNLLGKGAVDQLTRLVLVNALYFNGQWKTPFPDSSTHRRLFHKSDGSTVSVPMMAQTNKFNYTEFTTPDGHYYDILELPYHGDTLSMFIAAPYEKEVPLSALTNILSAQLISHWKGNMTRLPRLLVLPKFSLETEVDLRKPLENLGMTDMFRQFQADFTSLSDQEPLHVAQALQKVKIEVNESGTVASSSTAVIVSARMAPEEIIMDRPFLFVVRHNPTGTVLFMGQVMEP
# Assay text: Test Example 2: human PAI-1 inhibitory activity (tPA fluorogenic substrate, pH 7.4 HEPES buffer)
# Format: biochemical
# Condition set: human PAI-1; compound concentration 1 μM
# Method: 0.1 M HEPES, 0.1 M NaCl. 1 mM EDTA. 0.1% Polyethylene glycol 8,000 (Hampton Research Corporation), 2 mM Dimethyldecylphoshine oxide [Apo-10] (Fluka Corporation)
Measure name: Inhibition Rate of PAI-1 Activity (%)

In the examples that follow, each entry is paired with its recorded Inhibition Rate of PAI-1 Activity (%).
> print(dat)
                                   molecule  reported.value
1  CC(C)(C)c1ccc(Oc2cc(Nc3ccc(OC(F)(F)F)cc3)ccc2OCC(=O)O)cc1 [Compound 536]              87
2  O=C(O)C(=O)N(CCCCc1ccccc1)c1ccc(N2CCSCC2)c(-c2ccc(OC(F)(F)F)cc2)c1 [Compound 675]              95

1: CC(C)(C)c1ccc(Oc2cc(-c3ccc(OC(F)(F)F)cc3)ccc2/C=C\C(=O)O)cc1 [Compound 450]
2: CCC(CC)Oc1ccc(-c2ccc(CCC(=O)O)c(Oc3ccc(C(C)(C)C)cc3)c2)cc1 [Compound 522]
3: CC(C)(C)c1ccc(CN(C(=O)C(=O)O)c2ccc(N3CCN(c4ccccc4)CC3)cc2)cc1 [Compound 627]
4: O=C(O)/C=C/c1ccc(-c2ccc(OC(F)(F)F)cc2)cc1OCCCOCc1ccccc1 [Compound 487]
5: O=C(O)CC(=O)N(Cc1ccccc1)c1ccc(-c2ccc(OC(F)(F)F)cc2)cc1F [Compound 602]
// sort entries: Inhibition Rate of PAI-1 Activity (%), high to low // rank by listing labels in the order requested
2, 1, 4, 5, 3
(2: 98%, 1: 58%, 4: 26%, 5: 9%, 3: 0%)

P: CC(C)(C)c1ccc(Oc2cc(-c3ccccc3OC(F)(F)F)ccc2CCC(=O)O)cc1 [Compound 467]
Q: CCCCCOc1cc(-c2ccc(OC(F)(F)F)cc2)cc(OCCCCC)c1OCC(=O)O [Compound 424]
// compare measured Inhibition Rate of PAI-1 Activity (%) between P and Q ; output the lower one In your reply, give the label of the chosen option.
Q
(Q: 38%, P: 73%)

I: CCCN(CC(=O)O)c1cc(-c2ccc(OC(F)(F)F)cc2)ccc1Oc1ccc(C(C)(C)C)cc1 [Compound 435]
II: CC(C)(C)c1cccc(Oc2ccc(-c3ccc(OC(F)(F)F)cc3)cc2OCC(=O)O)c1 [Compound 439]
Out of I and II , name the one with the higher Inhibition Rate of PAI-1 Activity (%). When you have decided, please share the label of that item.
I

P: CC(C)[C@@H]1CC[C@@H](C)C[C@H]1Oc1ccc(-c2ccc(OC(F)(F)F)cc2)cc1N(CCCCc1ccccc1)C(=O)C(=O)O [Compound 639]
Q: CC(C)Oc1ccc(-c2ccc(OCC(=O)O)c(Oc3ccc(C(C)(C)C)cc3)c2)cc1 [Compound 460]
Given the listed records, identify the one among P and Q with higher Inhibition Rate of PAI-1 Activity (%). Returns: label corresponding to the selected item.
P
(P: 91%, Q: 63%)

Data origin: patent US8633245B2
